Target: Cu(II)-β2m (β-2-microglobulin) (Homo sapiens, UniProt P61769)
Sequence (P61769 21-119): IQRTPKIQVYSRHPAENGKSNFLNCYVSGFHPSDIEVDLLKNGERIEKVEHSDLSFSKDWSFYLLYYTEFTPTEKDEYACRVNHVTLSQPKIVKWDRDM
pKd: −log10 of the molar value.
Measured Quantity: pKd

O=C(O[C@@H]1Cc2c(O)cc(O)cc2O[C@@H]1c1cc(O)c(O)c(O)c1)c1cc(O)c(O)c(O)c1 [EGCG, epigallocatechin gallate] :: 4.92
